System: AncSZ
Method Notes: phosphorylation enrichment, bacterial display (enrichment ratio); higher = better substrate or ligand; peptides without Tyr show the background;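 note: 11-residue human phosphosite peptides and single-mutation variants displayed on the E. coli surface, counted by deep sequencing, each peptide's frequency after selection divided by its frequency in the unselected input library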;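 note: frequency after pTyr selection over input frequency; kinase dosed for 20-30% of maximal phosphorylation in three min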
Tag: fulfilled if measured phosphorylation enrichment is not below 1, not fulfilled if it is.

Worked cases, answers included:
[[record]]
sequence_chain = "QWRTKYEMDAI [MYH7_Y1375_T1377M]"
group_label = "fulfilled"

[[record]]
sequence_chain = "DCLASYLDKVR [KRT10_Y160_R156C]"
group_label = "not fulfilled"

[[record]]
sequence_chain = "EKQARYEIVVE [CDH5_Y223]"
group_label = "not fulfilled"

[[record]]
sequence_chain = "VPLATYMRIFK [RPL21_Y30_YF]"
group_label = "not fulfilled"

[[record]]
sequence_chain = "SQSPHYFRSGR [GPATCH8_Y1038]"
group_label = "not fulfilled"


**Q:** phosphorylation enrichment >= 1 for TVFENYVADIK [RHOA_Y42_E47K] ?
**A:** not fulfilled

**Q:** Can you handle LHRHAYPEQRQ [DPPA2_Y127] next?
**A:** not fulfilled

**Q:** Moving on to TRFDEYLEVTK [MAP1A_Y2217_H2214Y_YF]
**A:** fulfilled

**Q:** For PRAGVYPEKDQ [DNM2_Y626_L621P] then?
**A:** fulfilled

**Q:** Same again, this time with LIQRNYKLAAQ [ALPK2_Y1975]
**A:** fulfilled

**Q:** Lookup ARSMEYLAEQK [MST1R_Y1198]
**A:** not fulfilled

**Q:** // same read-out, input: LAAAGYDVKKN [H1-3_Y72_E75K]
**A:** not fulfilled

====

Tested On: EPHB1 (UniProt P54762)
Sequence (P54762 whole entry, looked up): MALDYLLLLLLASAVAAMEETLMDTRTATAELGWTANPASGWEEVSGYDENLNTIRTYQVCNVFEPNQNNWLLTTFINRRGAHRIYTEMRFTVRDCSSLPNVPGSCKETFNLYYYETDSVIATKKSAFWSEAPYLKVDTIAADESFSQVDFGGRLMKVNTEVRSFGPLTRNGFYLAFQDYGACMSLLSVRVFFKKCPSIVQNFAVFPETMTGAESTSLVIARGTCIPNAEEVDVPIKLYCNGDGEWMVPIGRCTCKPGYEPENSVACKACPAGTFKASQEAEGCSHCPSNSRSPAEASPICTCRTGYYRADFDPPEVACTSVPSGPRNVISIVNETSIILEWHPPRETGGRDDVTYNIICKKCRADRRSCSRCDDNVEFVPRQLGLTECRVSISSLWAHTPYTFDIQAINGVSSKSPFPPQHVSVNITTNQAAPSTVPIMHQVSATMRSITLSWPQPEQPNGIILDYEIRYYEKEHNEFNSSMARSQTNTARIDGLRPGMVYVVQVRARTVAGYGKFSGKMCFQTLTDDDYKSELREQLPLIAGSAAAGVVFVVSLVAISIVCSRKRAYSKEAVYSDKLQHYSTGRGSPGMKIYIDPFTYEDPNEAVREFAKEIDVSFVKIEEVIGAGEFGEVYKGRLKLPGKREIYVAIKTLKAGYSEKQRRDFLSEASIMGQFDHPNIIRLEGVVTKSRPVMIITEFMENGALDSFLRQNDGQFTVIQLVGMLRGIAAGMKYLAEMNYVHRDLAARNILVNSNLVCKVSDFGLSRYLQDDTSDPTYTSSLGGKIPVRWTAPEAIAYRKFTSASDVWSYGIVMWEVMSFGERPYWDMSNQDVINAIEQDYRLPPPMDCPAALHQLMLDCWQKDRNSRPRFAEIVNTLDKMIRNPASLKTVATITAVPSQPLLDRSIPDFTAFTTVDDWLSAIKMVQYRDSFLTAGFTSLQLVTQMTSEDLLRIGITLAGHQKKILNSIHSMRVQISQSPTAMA
Method Notes: phosphorylation enrichment, bacterial display (enrichment ratio); higher = better substrate or ligand; peptides without Tyr show the background
Please map values of phosphorylation enrichment to classes as shown: bin 1: < 0.5; bin 2: ≥ 0.5 and < 0.8; bin 3: ≥ 0.8

[[record]]
sequence_chain = "KTGNIYRTEFG [MRPL3_Y265_M261T_YF]"
group_label = "bin 1"

[[record]]
sequence_chain = "RFLERYIYNPE [HLA-DPB1_Y57_R61P]"
group_label = "bin 2"

[[record]]
sequence_chain = "TVFENYVADIK [RHOA_Y42_E47K]"
group_label = "bin 3"

[[record]]
sequence_chain = "RSHRSYSCQVM [IGLL1_Y192_R189H]"
group_label = "bin 2"

[[record]]
sequence_chain = "PCPANYFAFKI [FAM3D_Y65]"
group_label = "bin 3"


**Q:** Which of the defined bands does the recorded phosphorylation enrichment of QNTGVYYDLYG [PTPN11_Y62_D61V] sit within?
**A:** bin 3

**Q:** Also, GCRSKYVGLWG [KCNQ1_Y184] please.
**A:** bin 1

**Q:** Quick one: TTSQLYDAMPI [PDPK1_Y9_V12M]
**A:** bin 3

====

Tested On: EPHB1 (UniProt P54762)
Method Notes: phosphorylation enrichment, bacterial display (enrichment ratio); higher = better substrate or ligand; peptides without Tyr show the background
Decision: phosphorylation enrichment compared against 0.5; not below it gives Criterion met, below it gives Criterion not met.

[[record]]
sequence_chain = "NIEPVYLNMLL [ATR_Y317]"
group_label = "Criterion met"

[[record]]
sequence_chain = "RLQEDYDHSYY [ESD_Y258_G257D]"
group_label = "Criterion met"


**Q:** Determine whether this sequence has phosphorylation enrichment no lower than 0.5: `DLHGIYQKLVI`
**A:** Criterion met

**Q:** Now consider SSKILYHIIKG [CDH17_Y489] and answer again.
**A:** Criterion not met

**Q:** Next record, please: GIVEDYRPPVF [ACVRL1_Y421_F425V_YF]
**A:** Criterion not met
